Test: Antiproliferative activity against mouse Colon 26-L5 cells by MTT assay
Format: functional
Settings: read-out: ED50 (the source's name)
Would you kindly list pEC50 for each of these compounds?
Keep in mind that pEC50 stands for -log10 of concentration in molar terms.

Query: Entry under review: `CCO[C@H](/C=C/c1ccccc1)C[C@@H](O)CCc1ccc(O)cc1` . Reported pEC50?
Result: 4.02

Query: Next compound: `O=C(/C=C/C=C/c1ccc(O)cc1)CCc1ccc(O)cc1`
Result: 4.24

Query: Next compound: `Oc1ccc(CC[C@H](O)C[C@@H](O)CCc2ccc(O)cc2)cc1`
Result: 4.89

Query: Next compound: `CO[C@H](/C=C/c1ccccc1)C[C@@H](O)CCc1ccc(O)cc1`
Result: 4.06

Query: Next compound: `O=C(/C=C(O)/C=C/c1ccc(O)cc1)CCc1ccc(O)cc1`
Result: 4.20

Query: Next compound: COc1cc(O)cc(O)c1C(=O)/C=C/c1ccc(O)cc1 [HELICHRYSETIN]
Result: 4.19

Query: Next compound: COC(=O)/C=C/c1ccc(O)cc1 [METHYL P-HYDROXYCINNAMATE]
Result: 4.07

Query: Next compound: `CO[C@@H](CCc1ccc(O)cc1)CC(=O)/C=C/c1ccc(O)cc1`
Result: 5.28

Query: Next compound: Oc1cc(O)cc(O)c1 [PHLOROGLUCINOL]
Result: 4.58

Query: Next compound: O=c1[nH]cc(F)c(=O)[nH]1 [FLUOROURACIL]
Result: 6.30

Query: Next compound: `COc1cc(/C=C/c2ccc(O)cc2)oc(=O)c1`
Result: 4.68

Query: Next compound: `COc1cc(O)cc(OC)c1C(=O)/C=C/c1ccc(O)cc1`
Result: 4.54
